System: Raf-1^gof intestinal tumors; further: test concentration or dose not given here
settings: screen of 480 ICCB compounds in vials; compounds fed to flies with one-day old Raf-1^gof tumors, assessed three days later; esg-Gal4 luciferase
valueKind: Log2 (fold) (luciferase activity, log2 of the fold difference relative to DMSO controls)
Give your answer as a number; write no unit.

Q. Could you share which Log2 (fold) (luciferase activity, log2 of the fold difference relative to DMSO controls) value was measured for `CC(C)n1cnc2c(NCc3ccccc3)nc(NCCO)nc21` ?
A. −0.490

Q. Could you share which Log2 (fold) (luciferase activity, log2 of the fold difference relative to DMSO controls) value was measured for C[C@]12C=CC(=O)C=C1CC[C@@H]1C2=CC[C@]2(C)[C@@H](C(=O)CN3CCN(c4cc(N5CCCC5)nc(N5CCCC5)n4)CC3)CC[C@@H]12.O=C(O)/C=C\C(=O)O [U-74389G] ?
A. −0.462

Q. Could you share which Log2 (fold) (luciferase activity, log2 of the fold difference relative to DMSO controls) value was measured for CCCCC/C=C\C=C\[C@@H](O)CCCCCCCC(=O)O [9(S)-HODE] ?
A. −0.398

Q. Could you share which Log2 (fold) (luciferase activity, log2 of the fold difference relative to DMSO controls) value was measured for `CCCCCCCC/C=C\C/C=C\C/C=C\CCCC(=O)O` ?
A. −0.279

Q. Could you share which Log2 (fold) (luciferase activity, log2 of the fold difference relative to DMSO controls) value was measured for `O=C1C(SCCO)=C(SCCO)C(=O)c2ccccc21` ?
A. −0.495

Q. Could you share which Log2 (fold) (luciferase activity, log2 of the fold difference relative to DMSO controls) value was measured for `C=C1[C@@H](C)[C@H]2[C@H](Cc3ccccc3)NC(=O)[C@]23OC(=O)/C=C/[C@H](O)CCC[C@@H](C)C/C=C/[C@H]3[C@@H]1O` ?
A. −0.677

Q. Could you share which Log2 (fold) (luciferase activity, log2 of the fold difference relative to DMSO controls) value was measured for `Nc1cc(N2CCCCC2)nc(N)[n+]1[O-]` ?
A. −0.292

Q. Could you share which Log2 (fold) (luciferase activity, log2 of the fold difference relative to DMSO controls) value was measured for `C[C@H](CCC(=O)O)C[C@H](C)C[C@H](C)C(=O)/C=C(\O)[C@H](C)C[C@H](C)C/C=C/[C@@H](C)[C@@H](O)[C@@H](C)[C@@H](O)C[C@@H]1CC[C@@](C)([C@H]2CC[C@@](C)([C@@H](C)O)O2)O1` ?
A. −0.591

Q. Could you share which Log2 (fold) (luciferase activity, log2 of the fold difference relative to DMSO controls) value was measured for COCCOC(=O)C1=C(C)NC(C)=C(C(=O)OC(C)C)C1c1cccc([N+](=O)[O-])c1 (centres unmarked) ?
A. −0.238

Q. Could you share which Log2 (fold) (luciferase activity, log2 of the fold difference relative to DMSO controls) value was measured for `Fc1ccc(C(c2ccc(F)cc2)N2CCN(C/C=C/c3ccccc3)CC2)cc1` ?
A. −0.836

Q. Could you share which Log2 (fold) (luciferase activity, log2 of the fold difference relative to DMSO controls) value was measured for CCCCCc1cc(O)c2c(c1)OC(C)(C)C1CCC(C(=O)O)=CC21 (centres unmarked) [TETRAHYDROCANNABINOL-7-OIC ACID] ?
A. −0.240

Q. Could you share which Log2 (fold) (luciferase activity, log2 of the fold difference relative to DMSO controls) value was measured for Cc1ccc(S(=O)(=O)NC(=O)NN2CCCCCC2)cc1 [TOLAZAMIDE] ?
A. −0.365

Q. Could you share which Log2 (fold) (luciferase activity, log2 of the fold difference relative to DMSO controls) value was measured for `CC(C)=CC[C@@H](O)C1=CC(=O)c2c(O)ccc(O)c2C1=O` ?
A. −0.795

Q. Could you share which Log2 (fold) (luciferase activity, log2 of the fold difference relative to DMSO controls) value was measured for CCCCC/C=C\C/C=C\CC1OC1C/C=C\CCCC(=O)O (centres unmarked) ?
A. −0.625

Q. Could you share which Log2 (fold) (luciferase activity, log2 of the fold difference relative to DMSO controls) value was measured for `Cc1ccc(NC(=O)c2cccc(N(C)C)c2)cc1NC(=O)c1ccc(O)cc1` ?
A. −0.338

Q. Could you share which Log2 (fold) (luciferase activity, log2 of the fold difference relative to DMSO controls) value was measured for C/C1=C/C(=O)O[C@@H]2C[C@@H](CC[C@H](C)/C=C\CC1)O[C@@](O)([C@@H]1CSC(=O)N1)C2 [Latrunculin B, reference compound] ?
A. −1.064

Q. Could you share which Log2 (fold) (luciferase activity, log2 of the fold difference relative to DMSO controls) value was measured for `COc1cccc(-c2cc(=O)c3ccccc3o2)c1N` ?
A. −0.338

Q. Could you share which Log2 (fold) (luciferase activity, log2 of the fold difference relative to DMSO controls) value was measured for `CC(C)c1cccc(=O)c(O)c1` ?
A. −0.240

Q. Could you share which Log2 (fold) (luciferase activity, log2 of the fold difference relative to DMSO controls) value was measured for CN(CCc1ccc(Cl)c(Cl)c1)CC(O)COc1ccc(NS(C)(=O)=O)cc1 (centres unmarked) ?
A. −0.341

Q. Could you share which Log2 (fold) (luciferase activity, log2 of the fold difference relative to DMSO controls) value was measured for CCCCCCCC/C=C\CCCCCCCC(N)=O [9,10-OCTADECENOAMIDE] ?
A. −0.454

Q. Could you share which Log2 (fold) (luciferase activity, log2 of the fold difference relative to DMSO controls) value was measured for NC12CC3CC(CC(C3)C1)C2 [AMANTIDINE] ?
A. −0.252

Q. Could you share which Log2 (fold) (luciferase activity, log2 of the fold difference relative to DMSO controls) value was measured for COC(=O)C1=C(C)NC(C)=C(C(=O)OCCN(C)Cc2ccccc2)C1c1cccc([N+](=O)[O-])c1 (centres unmarked) ?
A. −0.433

Q. Could you share which Log2 (fold) (luciferase activity, log2 of the fold difference relative to DMSO controls) value was measured for `C=CC[C@@H]1/C=C(\C)C[C@H](C)C[C@H](OC)[C@H]2O[C@@](O)(C(=O)C(=O)N3CCCC[C@H]3C(=O)O[C@H](/C(C)=C/[C@@H]3CC[C@@H](O)[C@H](OC)C3)[C@H](C)[C@@H](O)CC1=O)[C@H](C)C[C@@H]2OC` ?
A. −0.699

Q. Could you share which Log2 (fold) (luciferase activity, log2 of the fold difference relative to DMSO controls) value was measured for CC1=NS(=O)(=O)c2cc(Cl)ccc2N1 [DIAZOXIDE] ?
A. −0.257

Q. Could you share which Log2 (fold) (luciferase activity, log2 of the fold difference relative to DMSO controls) value was measured for CN(C)C[C@H](O)Cn1c2ccc(Br)cc2c2cc(Br)ccc21 (racemic) ?
A. −0.646

Q. Could you share which Log2 (fold) (luciferase activity, log2 of the fold difference relative to DMSO controls) value was measured for `O=C(Nc1ccccc1)c1cc([N+](=O)[O-])ccc1Cl` ?
A. −0.581

Q. Could you share which Log2 (fold) (luciferase activity, log2 of the fold difference relative to DMSO controls) value was measured for `CC(C)Cn1c(=O)n(C)c(=O)c2[nH]cnc21` ?
A. −0.297

Q. Could you share which Log2 (fold) (luciferase activity, log2 of the fold difference relative to DMSO controls) value was measured for CCCCCCCCCCCCCCCCCCOCC(COP(=O)([O-])OCC[N+](C)(C)C)OC (centres unmarked) ?
A. −0.538

Q. Could you share which Log2 (fold) (luciferase activity, log2 of the fold difference relative to DMSO controls) value was measured for `N#C/C(=C\c1cc(Cl)cc(Cl)c1)c1cccnc1` ?
A. −0.483

Q. Could you share which Log2 (fold) (luciferase activity, log2 of the fold difference relative to DMSO controls) value was measured for `CCCCC[C@H](O)/C=C/[C@@H]1[C@@H](C/C=C\CCCC(=O)O)[C@@H](O)C[C@H]1O` ?
A. −0.450

Q. Could you share which Log2 (fold) (luciferase activity, log2 of the fold difference relative to DMSO controls) value was measured for `O=S(=O)(c1cccc2c(Cl)cccc12)N1CCCNCC1` ?
A. −0.458

Q. Could you share which Log2 (fold) (luciferase activity, log2 of the fold difference relative to DMSO controls) value was measured for `O=C(/C=C/c1ccc(O)c(O)c1)OCCc1ccccc1` ?
A. −0.324

Reference for the values: patent US20130096067A1
